B1: WEE1 (parent)
chain: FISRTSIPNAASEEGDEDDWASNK

Variants of: B1
protocol_details: protein stability index of a GFP-peptide fusion (GPS, HEK-293T) (PSI 1-6); higher = more stable;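 also: lentivirally expressed fusions sorted by FACS into six bins by GFP to DsRed ratio, PSI derived from sequencing read proportions per bin multiplied by bin number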
test_conditions: c terminus: a fixed tail appended
Exercise: state measured protein stability index for each of the variants provided.

Would you please look over these solved cases?
E13H
3.67
S3R
4.02
N23V
2.71
D18M
3.03
N9M
3.25

List the reported protein stability index of each variant below.
1. E14V
2. I7C
3. E14M
4. E17R
5. A21I
6. E17C
7. N23S
8. A10V

Data returned:
[3.35, 3.83, 3.79, 3.67, 3.83, 3.43, 4.16, 3.57]

Return reported protein stability index values for all items listed beneath this line.
1. F1I
2. D16R
3. N9D
4. T5G
5. D19A

Data returned:
1: 5.73; 2: 4.17; 3: 4.34; 4: 3.53; 5: 3.77

Where these numbers come from: the supplement of paper PMC10567573
